ASSAY_SUMMARY: melting temperature; fluorescence melt of hairpins on a sequencing array, two-state fit, raised by 9.35 °C to match UV melts
CONDITION_DETAILS: sodium 0.088 M
Could you label it true if measured Tm is 50 °C or higher, and false otherwise?

{"SEQUENCE_CODE": "GTGAGCCCGAAAGGGCAC (((..(((....))))))", "ASSIGNED_CLASS": "true"}
{"SEQUENCE_CODE": "GGTTGGCGAAAGCCACC (((.(((....))))))", "ASSIGNED_CLASS": "true"}
{"SEQUENCE_CODE": "CGTTACGGAAACGTTACG (((.(((....))).)))", "ASSIGNED_CLASS": "false"}
{"SEQUENCE_CODE": "GAGGATGGAAACATCTTC ((.((((....)))).))", "ASSIGNED_CLASS": "false"}
{"SEQUENCE_CODE": "GTCGACGGAAACGTTGAC (((.(((....))).)))", "ASSIGNED_CLASS": "true"}
{"SEQUENCE_CODE": "GCTGTGCGAAAGCATCGC ((..(((....)))..))", "ASSIGNED_CLASS": "false"}
{"SEQUENCE_CODE": "GCGGGAGCGAAAGCTCGC (((..(((....))))))", "ASSIGNED_CLASS": "true"}
{"SEQUENCE_CODE": "GGAGGCGAAAGCCCCTCC ((((((....)))..)))", "ASSIGNED_CLASS": "true"}
{"SEQUENCE_CODE": "GGTCCCGAAAGGGCACC ((((((....))).)))", "ASSIGNED_CLASS": "true"}
{"SEQUENCE_CODE": "GATGCAGGAAACTGCACC (.(((((....))))).)", "ASSIGNED_CLASS": "false"}
{"SEQUENCE_CODE": "GAATCCGGAAACGGATCC (.(((((....))))).)", "ASSIGNED_CLASS": "false"}
{"SEQUENCE_CODE": "GGTTCTGAAAAGAACC ((((((....))))))", "ASSIGNED_CLASS": "true"}
{"SEQUENCE_CODE": "GTGGATGGAAACATTCGC (.(.(((....))).).)", "ASSIGNED_CLASS": "false"}

* * *

ASSAY_SUMMARY: folding enthalpy; higher = less favourable; fluorescence melt of hairpins on a sequencing array, two-state fit
CONDITION_DETAILS: sodium 0.088 M
Mark FALSE for folding enthalpy values under -30 kcal/mol, and TRUE for everything at or above.

{"SEQUENCE_CODE": "GTGAGGGAAACCTCAC ((((((....))))))", "ASSIGNED_CLASS": "FALSE"}
{"SEQUENCE_CODE": "GTCTCGGGAAACCGGGAC (((.(((....))).)))", "ASSIGNED_CLASS": "FALSE"}
{"SEQUENCE_CODE": "GACTGCGAAAGCATTGTC ((((((....)))..)))", "ASSIGNED_CLASS": "TRUE"}
{"SEQUENCE_CODE": "GGTCTCTCGAAAGAGACC (((..(((....))))))", "ASSIGNED_CLASS": "FALSE"}
{"SEQUENCE_CODE": "GCCTAGCGAAAGCGGGGC (((..((....))..)))", "ASSIGNED_CLASS": "TRUE"}
{"SEQUENCE_CODE": "GCTAAGCGAAAGCATTGC ((.(.((....)).).))", "ASSIGNED_CLASS": "TRUE"}
{"SEQUENCE_CODE": "GACACGGGAAACCGTACC (..((((....))))..)", "ASSIGNED_CLASS": "TRUE"}
{"SEQUENCE_CODE": "GGAATCGAAAGATCTTCC ((((((....)))..)))", "ASSIGNED_CLASS": "TRUE"}
{"SEQUENCE_CODE": "GCTATACCGAAAGGTAGC (((..(((....))))))", "ASSIGNED_CLASS": "TRUE"}
{"SEQUENCE_CODE": "GATCCTCGTTAGGATC ((((((....))))))", "ASSIGNED_CLASS": "FALSE"}
{"SEQUENCE_CODE": "GCTCCGCGAAAGCGAAGC (((.(((....))).)))", "ASSIGNED_CLASS": "TRUE"}
{"SEQUENCE_CODE": "GGTACACGAAAGTGCACC (((.(((....))).)))", "ASSIGNED_CLASS": "FALSE"}
{"SEQUENCE_CODE": "GCGTAGCGAAAGCAAAGC ((.(.((....)).).))", "ASSIGNED_CLASS": "TRUE"}
{"SEQUENCE_CODE": "GAACGTGGAAACGCGTTC (((((.(....).)))))", "ASSIGNED_CLASS": "FALSE"}
{"SEQUENCE_CODE": "CGTTCGGAAACGAGACG ((((((....))).)))", "ASSIGNED_CLASS": "TRUE"}
{"SEQUENCE_CODE": "GTCGGAGCGAAAGCTGAC (((..(((....))))))", "ASSIGNED_CLASS": "TRUE"}
{"SEQUENCE_CODE": "GCGAGACCTCGC ((((....))))", "ASSIGNED_CLASS": "TRUE"}
{"SEQUENCE_CODE": "GGTGTGCCGAAAGGCACC (((..(((....))))))", "ASSIGNED_CLASS": "TRUE"}
{"SEQUENCE_CODE": "GCCGGCACGAAAGTGGGC (((..(((....))))))", "ASSIGNED_CLASS": "TRUE"}
{"SEQUENCE_CODE": "GGGTTCGAAAGAATCCC ((((((....))).)))", "ASSIGNED_CLASS": "TRUE"}
{"SEQUENCE_CODE": "GATTCGGGAAACCGAGTC ((.((((....)))).))", "ASSIGNED_CLASS": "TRUE"}
{"SEQUENCE_CODE": "GCTCCCGAAAGGGTGAGC ((((((....)))..)))", "ASSIGNED_CLASS": "TRUE"}
{"SEQUENCE_CODE": "GCTCTGCGAAAGCACGGC ((..(((....)))..))", "ASSIGNED_CLASS": "TRUE"}
{"SEQUENCE_CODE": "GCTACGTCGAAAGACAGC (((..(((....))))))", "ASSIGNED_CLASS": "TRUE"}
{"SEQUENCE_CODE": "GATCAGTGGCTGATC ((((((...))))))", "ASSIGNED_CLASS": "TRUE"}
{"SEQUENCE_CODE": "GCCGGGGGAAACCTCGGC ((((.((....)).))))", "ASSIGNED_CLASS": "FALSE"}
{"SEQUENCE_CODE": "GATCTCGTTGAGATC ((((((...))))))", "ASSIGNED_CLASS": "FALSE"}
{"SEQUENCE_CODE": "GGCGTGGCGAAAGCCGCC (((..(((....))))))", "ASSIGNED_CLASS": "TRUE"}
{"SEQUENCE_CODE": "GCTCTCCGAAAGGATAGC (((.(((....))).)))", "ASSIGNED_CLASS": "FALSE"}

* * *

Tm values, listed per item
ASSAY_SUMMARY: melting temperature; fluorescence melt of hairpins on a sequencing array, two-state fit, raised by 9.35 °C to match UV melts
CONDITION_DETAILS: sodium 0.088 M

{"SEQUENCE_CODE": "GACTGCGAAAGCAACGTC ((((((....)))..)))", "Tm / °C": 38.8}
{"SEQUENCE_CODE": "GGCAACGGAAACGTTGTC (.(((((....))))).)", "Tm / °C": 55.9}
{"SEQUENCE_CODE": "CGGCCGGAAACGGACCCG ((((((....)))..)))", "Tm / °C": 38.8}
{"SEQUENCE_CODE": "GTAGACGGAAACGTCTGC (.(((((....))))).)", "Tm / °C": 55.1}
{"SEQUENCE_CODE": "GGATGTGGAAACACGTCC (((.(((....))).)))", "Tm / °C": 53}
{"SEQUENCE_CODE": "GTCTACGGAAACGTAGGC (.(((((....))))).)", "Tm / °C": 51.2}
{"SEQUENCE_CODE": "GCGGAGGACCGC ((((....))))", "Tm / °C": 52.4}
{"SEQUENCE_CODE": "GAACGGGGAAACCCGCTC ((.((((....)))).))", "Tm / °C": 45.3}
{"SEQUENCE_CODE": "GGTTAGCCGAAAGGCACC (((..(((....))))))", "Tm / °C": 41.2}
{"SEQUENCE_CODE": "GCCCGTGCGAAAGCAGGC (((..(((....))))))", "Tm / °C": 52}
{"SEQUENCE_CODE": "GGCTGACCGAAAGGTGCC (((..(((....))))))", "Tm / °C": 52.4}
{"SEQUENCE_CODE": "GGCCTCGAAAGAGAAGCC ((((((....)))..)))", "Tm / °C": 47.9}
{"SEQUENCE_CODE": "GGCCTTGAAAAAGGCC ((((((....))))))", "Tm / °C": 68.4}
{"SEQUENCE_CODE": "GAAAGCACGAAAGTGTTC (((..(((....))))))", "Tm / °C": 24}
{"SEQUENCE_CODE": "CGCGGACAGTCCGCG ((((((...))))))", "Tm / °C": 65.6}
{"SEQUENCE_CODE": "GTATTGGGAAACCAATAC (((((((....)))))))", "Tm / °C": 53.8}
{"SEQUENCE_CODE": "CACCTGAAAAGGTG (((((....)))))", "Tm / °C": 54.4}
{"SEQUENCE_CODE": "GAAAGGGGAAACCCTTCC (.(((((....))))).)", "Tm / °C": 32.1}
{"SEQUENCE_CODE": "CGCGCGGAAACGCGAGCG ((((((....)))..)))", "Tm / °C": 60.7}
{"SEQUENCE_CODE": "GCGTAGCGAAAGCAACGC ((((.((....)).))))", "Tm / °C": 66.7}
{"SEQUENCE_CODE": "GACTGCGAAAGCACTGTC ((((((....)))..)))", "Tm / °C": 39.9}
{"SEQUENCE_CODE": "GATCGGTGTCCGATC ((((((...))))))", "Tm / °C": 58.3}
{"SEQUENCE_CODE": "GTAGACGAAAGTCACTAC ((((((....)))..)))", "Tm / °C": 41.1}
{"SEQUENCE_CODE": "GGGATCTCGAAAGAGCCC (((..(((....))))))", "Tm / °C": 51.2}
{"SEQUENCE_CODE": "GCGGCGCGAAAGCTTCGC (((..((....))..)))", "Tm / °C": 54.1}
{"SEQUENCE_CODE": "GCCTTCGAAAGAATTGGC ((((((....)))..)))", "Tm / °C": 37}
{"SEQUENCE_CODE": "GACTTGCGAAAGCAGTC (((.(((....))))))", "Tm / °C": 51.9}
{"SEQUENCE_CODE": "GCATAGCCGAAAGGCTGC (((..(((....))))))", "Tm / °C": 49.3}
{"SEQUENCE_CODE": "GCATCCGAAAGGAAGTGC ((((((....)))..)))", "Tm / °C": 41.3}
{"SEQUENCE_CODE": "GATCTTGCTTAAGATC ((((((....))))))", "Tm / °C": 44}
